Some compounds, each annotated with its measured inhibition at 10 µM.
- system: horse serum eqBChE (Equus caballus)
- Construct: Acetylcholinesterase from electric eel and butyrylcholinesterase from equine serum (Sigma Aldrich) were employed; purchased Sigma Aldrich; host or cells: equine serum
- measurement protocol: biochemical
- Type: biochemical
- experimental setup: at 10 µM concentration, mean ± SD; read-out: eqBChE % inhibition
# number only, unit % dropped from output

Solved entries (count: 4):
# smiles, inhibition at 10 µM / %
rows = [
    ("CCCN(CCC)Cc1c(O)ccc2c(-c3cc4ccccc4oc3=O)cc(=O)oc12", 22),
    ("CCN(CC)Cc1c(O)ccc2c(-c3cc4cc(Br)ccc4oc3=O)cc(=O)oc12", 37),
    ("COc1cccc2cc(-c3cc(=O)oc4c(CN(C)C)c(O)ccc34)c(=O)oc12", 25),
    ("CCCN(CCC)Cc1c(O)ccc2c(-c3cc4cccc(OC)c4oc3=O)cc(=O)oc12", 14),
]

// moving on: another record for inhibition at 10 µM
For CCCCN(C)Cc1c(O)ccc2c(-c3cc4cccc(OC)c4oc3=O)cc(=O)oc12 , write its inhibition at 10 µM.
40

###

- system: human MAO-A (Homo sapiens, UniProt P21397)
- Construct: purchased Sigma Aldrich; host or cells: insect cells infected with baculovirus (microsomes)
- Sequence (P21397 whole entry): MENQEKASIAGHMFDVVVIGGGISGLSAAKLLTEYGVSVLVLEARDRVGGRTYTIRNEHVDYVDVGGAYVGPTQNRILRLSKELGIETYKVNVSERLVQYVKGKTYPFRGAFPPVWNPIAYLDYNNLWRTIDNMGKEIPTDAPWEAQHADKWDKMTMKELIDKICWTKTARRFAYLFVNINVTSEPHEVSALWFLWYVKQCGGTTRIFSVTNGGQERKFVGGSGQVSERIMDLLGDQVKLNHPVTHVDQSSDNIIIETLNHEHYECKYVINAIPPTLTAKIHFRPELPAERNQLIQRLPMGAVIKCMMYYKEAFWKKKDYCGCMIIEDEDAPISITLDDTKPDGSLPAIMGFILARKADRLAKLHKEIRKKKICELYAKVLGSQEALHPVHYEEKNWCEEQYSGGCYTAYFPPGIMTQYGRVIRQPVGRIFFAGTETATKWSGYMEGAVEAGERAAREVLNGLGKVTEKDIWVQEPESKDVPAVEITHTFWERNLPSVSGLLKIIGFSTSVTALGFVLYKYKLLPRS
- measurement protocol: biochemical
- Format: biochemical
assay metric: pIC50
# reply with the number alone; pIC50 is -log10 of concentration in mol/L

Solved entries (count: 3):
# compound, pIC50
data = [
    ("CN(C)Cc1c(O)ccc2c(-c3cc4cc(Cl)ccc4oc3=O)cc(=O)oc12 [Compound 2b]", 5.83),
    ("CN(C)Cc1c(O)ccc2c(-c3cc4ccccc4oc3=O)cc(=O)oc12 [Compound 2a]", 5.08),
    ("CCN(CC)Cc1c(O)ccc2c(-c3cc4cc(Br)ccc4oc3=O)cc(=O)oc12 [Compound 3c]", 5.52),
]

// moving on: another record for pIC50
For CN(C)Cc1c(O)ccc2c(-c3cc4cc(Br)ccc4oc3=O)cc(=O)oc12 [Compound 2c] , write its pIC50.
5.65

###

- system: human MAO-A (Homo sapiens)
- Construct: purchased Sigma Aldrich; host or cells: insect cells infected with baculovirus (microsomes)
- measurement protocol: biochemical
- Format: biochemical
- experimental setup: at 10 µM concentration, mean ± SD
assay metric: inhibition at 10 µM (%)
# number only, unit % dropped from output

Solved entries (count: 3):
# compound, meas value
measured = [
    ("CCCCN(C)Cc1c(O)ccc2c(-c3cc4cccc(OC)c4oc3=O)cc(=O)oc12 [Compound 5d]", 39),
    ("COCCN(CCOC)Cc1c(O)ccc2c(-c3cc4cccc(OC)c4oc3=O)cc(=O)oc12 [Compound 6d]", 26),
    ("CCCN(CCC)Cc1c(O)ccc2c(-c3cc4cccc(OC)c4oc3=O)cc(=O)oc12 [Compound 4d]", 29),
]

For CCCN(CCC)Cc1c(O)ccc2c(-c3cc4ccccc4oc3=O)cc(=O)oc12 [Compound 4a] , write its inhibition at 10 µM.
29

###

- system: human huMAO-B (Homo sapiens)
- Construct: purchased Sigma Aldrich; host or cells: insect cells infected with baculovirus (microsomes)
- Sequence (P27338 whole entry): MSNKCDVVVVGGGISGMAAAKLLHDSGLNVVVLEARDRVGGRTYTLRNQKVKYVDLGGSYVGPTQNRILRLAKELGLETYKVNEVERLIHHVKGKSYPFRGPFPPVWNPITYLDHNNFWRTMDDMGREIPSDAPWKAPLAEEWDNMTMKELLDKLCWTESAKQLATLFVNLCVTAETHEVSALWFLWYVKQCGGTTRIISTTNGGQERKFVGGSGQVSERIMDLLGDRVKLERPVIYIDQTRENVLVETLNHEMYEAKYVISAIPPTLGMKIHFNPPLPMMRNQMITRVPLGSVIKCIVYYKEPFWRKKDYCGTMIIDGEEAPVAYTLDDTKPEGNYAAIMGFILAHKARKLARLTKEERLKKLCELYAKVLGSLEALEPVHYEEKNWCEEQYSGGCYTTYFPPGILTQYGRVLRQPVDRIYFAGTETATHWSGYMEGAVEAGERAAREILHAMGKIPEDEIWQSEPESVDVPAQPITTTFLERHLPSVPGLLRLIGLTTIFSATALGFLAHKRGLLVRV
- measurement protocol: biochemical
- Assay type: biochemical
- experimental setup: at 10 µM concentration, mean ± SD
The threshold is inclusive: inhibition at 10 µM of exactly 40% counts as class 1; values below receive class 0.

A selection of reference data follows.
# smiles, label
rows = [
    ("CN(C)Cc1c(O)ccc2c(-c3cc4ccccc4oc3=O)cc(=O)oc12", "class 0"),
    ("CCCN(CCC)Cc1c(O)ccc2c(-c3cc4ccccc4oc3=O)cc(=O)oc12", "class 0"),
    ("COCCN(CCOC)Cc1c(O)ccc2c(-c3cc4cccc(OC)c4oc3=O)cc(=O)oc12", "class 0"),
    ("CCN(CC)Cc1c(O)ccc2c(-c3cc4cc(Br)ccc4oc3=O)cc(=O)oc12", "class 1"),
]

Could you please find out whether CCCN(CCC)Cc1c(O)ccc2c(-c3cc4cccc(OC)c4oc3=O)cc(=O)oc12 has inhibition at 10 µM that meets 40% or exceeds it?
class 1

Could you please find out whether COc1cccc2cc(-c3cc(=O)oc4c(CN(C)C)c(O)ccc34)c(=O)oc12 has inhibition at 10 µM that meets 40% or exceeds it?
class 0

###

Some compounds, each annotated with its measured IC50.
- system: human MAO-A (Homo sapiens, UniProt P21397)
- Construct: purchased Sigma Aldrich; host or cells: insect cells infected with baculovirus (microsomes)
- measurement protocol: biochemical
- Format: biochemical
- experimental setup: mean ± SD of three independent determinations; ~10 means 50–60% inhibition at 10 µM
# number only, unit nM dropped from output

# smiles, IC50 (nM)
measured = [
    ("CCCCN(C)Cc1c(O)ccc2c(-c3cc4cc(Br)ccc4oc3=O)cc(=O)oc12", 2520),
]

// moving on: another record for IC50
For CCCCN(C)Cc1c(O)ccc2c(-c3cc4cc(Cl)ccc4oc3=O)cc(=O)oc12 , write its IC50.
1850

###

- system: electric eel eeAChE (Electrophorus electricus)
- Construct: Acetylcholinesterase from electric eel and butyrylcholinesterase from equine serum (Sigma Aldrich) were employed; purchased Sigma Aldrich; host or cells: electric eel (natural source)
- Sequence (O42275 24-633): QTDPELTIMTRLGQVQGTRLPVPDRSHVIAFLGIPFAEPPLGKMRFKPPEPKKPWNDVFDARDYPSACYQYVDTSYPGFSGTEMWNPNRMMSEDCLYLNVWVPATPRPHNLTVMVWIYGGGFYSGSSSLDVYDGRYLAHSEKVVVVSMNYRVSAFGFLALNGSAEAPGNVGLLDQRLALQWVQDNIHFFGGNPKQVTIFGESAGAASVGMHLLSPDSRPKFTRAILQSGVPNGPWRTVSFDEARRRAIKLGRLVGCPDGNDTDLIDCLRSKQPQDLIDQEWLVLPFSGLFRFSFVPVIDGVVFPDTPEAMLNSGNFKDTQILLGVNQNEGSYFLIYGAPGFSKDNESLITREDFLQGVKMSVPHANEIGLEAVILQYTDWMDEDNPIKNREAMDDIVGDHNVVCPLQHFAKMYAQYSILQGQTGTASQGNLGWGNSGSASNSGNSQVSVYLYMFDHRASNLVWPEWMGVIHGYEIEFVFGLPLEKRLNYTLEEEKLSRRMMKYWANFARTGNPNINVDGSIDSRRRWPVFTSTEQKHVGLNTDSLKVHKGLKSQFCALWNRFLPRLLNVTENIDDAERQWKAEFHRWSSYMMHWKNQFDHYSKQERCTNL
- measurement protocol: biochemical
- experimental setup: at 10 µM concentration, mean ± SD
assay metric: inhibition at 10 µM (%)
# number only, unit % dropped from output

Solved entries (count: 4):
# smiles, meas value
records = [
    ("CCCN(CCC)Cc1c(O)ccc2c(-c3cc4ccccc4oc3=O)cc(=O)oc12", 37),
    ("COc1cccc2cc(-c3cc(=O)oc4c(CN(C)C)c(O)ccc34)c(=O)oc12", 39),
    ("COCCN(CCOC)Cc1c(O)ccc2c(-c3cc4cccc(OC)c4oc3=O)cc(=O)oc12", 20),
    ("CN(C)Cc1c(O)ccc2c(-c3cc4cc(Br)ccc4oc3=O)cc(=O)oc12", 20),
]

// moving on: another record for inhibition at 10 µM
For CN(C)Cc1c(O)ccc2c(-c3cc4ccccc4oc3=O)cc(=O)oc12 , write its inhibition at 10 µM.
22

###

- system: horse serum eqBChE (Equus caballus)
- Construct: Acetylcholinesterase from electric eel and butyrylcholinesterase from equine serum (Sigma Aldrich) were employed; purchased Sigma Aldrich; host or cells: equine serum
- measurement protocol: biochemical
- Format: biochemical
- experimental setup: at 10 µM concentration; read-out: eqBChE inhibition class
Some compounds, each annotated with its measured inhibition at 10 µM.

State recorded inhibition at 10 µM with horse serum eqBChE (Equus caballus), entry CN(C)Cc1c(O)ccc2c(-c3cc4cc(Br)ccc4oc3=O)cc(=O)oc12 , no comment.
< 10%

State recorded inhibition at 10 µM with horse serum eqBChE (Equus caballus), entry CN(C)Cc1c(O)ccc2c(-c3cc4cc(Cl)ccc4oc3=O)cc(=O)oc12 , no comment.
< 10%

State recorded inhibition at 10 µM with horse serum eqBChE (Equus caballus), entry CN(C)Cc1c(O)ccc2c(-c3cc4ccccc4oc3=O)cc(=O)oc12 , no comment.
< 10%

State recorded inhibition at 10 µM with horse serum eqBChE (Equus caballus), entry COCCN(CCOC)Cc1c(O)ccc2c(-c3cc4cccc(OC)c4oc3=O)cc(=O)oc12 , no comment.
< 10%

###

- measurement protocol: Lipophilicity by RP-HPLC (log k'w)
- Format: physicochemical
- experimental setup: C18, extrapolated to 100% water mobile phase
assay metric: Log k’w (polycratic capacity factor)
Lab note: record just the number, no unit beside it.

Solved entries (count: 3):
# smiles, meas value
records = [
    ("CN(C)Cc1c(O)ccc2c(-c3cc4cc(Br)ccc4oc3=O)cc(=O)oc12", 2.65),
    ("CN(C)Cc1c(O)ccc2c(-c3cc4ccccc4oc3=O)cc(=O)oc12", 2.11),
    ("COc1cccc2cc(-c3cc(=O)oc4c(CN(C)C)c(O)ccc34)c(=O)oc12", 2.32),
]

For CCN(CC)Cc1c(O)ccc2c(-c3cc4cc(Br)ccc4oc3=O)cc(=O)oc12 , write its Log k’w (polycratic capacity factor).
2.89

For CN(C)Cc1c(O)ccc2c(-c3cc4cc(Cl)ccc4oc3=O)cc(=O)oc12 , write its Log k’w (polycratic capacity factor).
2.45

###

- system: horse serum eqBChE (Equus caballus, UniProt P81908)
- Construct: Acetylcholinesterase from electric eel and butyrylcholinesterase from equine serum (Sigma Aldrich) were employed
- Sequence (P81908 whole entry): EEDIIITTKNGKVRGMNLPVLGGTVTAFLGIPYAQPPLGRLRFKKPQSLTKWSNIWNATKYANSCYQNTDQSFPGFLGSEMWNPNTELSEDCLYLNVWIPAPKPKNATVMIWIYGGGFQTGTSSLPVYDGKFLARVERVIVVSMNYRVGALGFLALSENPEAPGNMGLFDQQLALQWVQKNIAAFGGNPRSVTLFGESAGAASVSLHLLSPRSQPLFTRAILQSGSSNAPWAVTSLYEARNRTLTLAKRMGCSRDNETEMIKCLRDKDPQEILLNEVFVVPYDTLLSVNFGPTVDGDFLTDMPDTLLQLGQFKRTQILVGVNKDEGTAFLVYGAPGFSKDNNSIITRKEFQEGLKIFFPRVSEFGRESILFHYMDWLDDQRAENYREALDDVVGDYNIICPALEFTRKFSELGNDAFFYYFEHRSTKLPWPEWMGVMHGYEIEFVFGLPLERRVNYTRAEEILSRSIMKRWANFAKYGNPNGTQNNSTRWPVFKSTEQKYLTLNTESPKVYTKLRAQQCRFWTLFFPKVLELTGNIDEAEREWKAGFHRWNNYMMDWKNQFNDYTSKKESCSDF
- measurement protocol: biochemical
- experimental setup: mean ± SD of three independent determinations; ~10 means 50–60% inhibition at 10 µM
assay metric: IC50

For COc1cccc2cc(-c3cc(=O)oc4c(CN(C)Cc5ccccc5)c(O)ccc34)c(=O)oc12 [Compound 8d] , write its IC50.
~10 µM

###

- measurement protocol: Kinetic solubility in aqueous buffers (RP-HPLC)
- Assay type: physicochemical
- experimental setup: PBS buffer, 25 °C, pH 7.4, aqueous buffer, kinetic from dmso stock, PBS (50 mM, pH 7.4, 0.15 M KCl) at 25 ± 1 °C, n = 3; read-out: Solubility Exp.
assay metric: solubility at 2 h (µM)
# number only, unit µM dropped from output

Solved entries (count: 3):
# compound, unit annotation, solubility at 2 h
measured = [
    ("CN(C)Cc1c(O)ccc2c(-c3cc4ccccc4oc3=O)cc(=O)oc12 [Compound 2a]", "µM", 183),
    ("COc1cccc2cc(-c3cc(=O)oc4c(CN(C)C)c(O)ccc34)c(=O)oc12 [Compound 2d]", "µM", 196),
    ("CN(C)Cc1c(O)ccc2c(-c3cc4cc(Br)ccc4oc3=O)cc(=O)oc12 [Compound 2c]", "µM", 141),
]

// moving on: another record for solubility at 2 h
For CN(C)Cc1c(O)ccc2c(-c3cc4cc(Cl)ccc4oc3=O)cc(=O)oc12 [Compound 2b] , write its solubility at 2 h.
147
